Provide the recorded pIC50 for the entries that follow.
Assay: Inhibition of full length human GST tagged LC3 (1 to 120 residues)/p62 (unknown origin) interaction expressed in Escherichia coli BL21 Star (DE3) incubated for 2 hrs by SPR based competitive binding assay
Note on units: pIC50 is unitless, being -log10 of a concentration expressed in mol/L.

For the compound shown here, O=C(O)CSc1cc(NS(=O)(=O)c2ccc(Br)cc2)c2ccccc2c1O , give the reported pIC50.
6.05

For the compound shown here, O=C1CC(=O)c2ccc3c4c(ccc1c24)C(=O)CC3=O , give the reported pIC50.
5.70
